- methodDescription: concentration in blood after subcutaneous administration to mice (paper disk method, Morganella morganii IFO 3843)
- Format: in vivo, mice (ddY, male)
- conditionDescription: mouse, sc, 20 mg/kg subcutaneous, 30 min
parameter: concentration at 0.5 h (ng/mL)
Numbers only; they are read as ng/mL.

(Q) Determine from records and report concentration at 0.5 h for C=C(O/N=C(\C(=O)N[C@@H]1C(=O)N2C(C(=O)O)=C(CSc3nc(C(=O)O)c(-c4ccc(O)c(O)c4)s3)CS[C@H]12)c1csc(N)n1)C(=O)O
(A) 44300

###

- Tested on: M. morganii GN5407*
- methodDescription: in vitro antibacterial activity, agar plate dilution method
- Type: cell-based
- conditionDescription: Morganella morganii, GN5407, 16 h
parameter: MIC (µg/mL)
Numbers only; they are read as µg/mL.

As a guide, the following entries are already answered.
- compound: "CO/N=C(\\C(=O)N[C@@H]1C(=O)N2C(C(=O)O)=C(COC(C)=O)CS[C@H]12)c1csc(N)n1 [Cefotaxime, reference compound]"
  parameter: "MIC"
  observedValue: 0.05
- compound: "C=C(O/N=C(\\C(=O)N[C@@H]1C(=O)N2C(C(=O)O)=C(CSc3nc(C(=O)O)c(-c4ccc(O)c(O)c4)s3)CS[C@H]12)c1csc(N)n1)C(=O)O [Example 15]"
  parameter: "MIC"
  observedValue: 0.025
- compound: "C=C(O/N=C(\\C(=O)N[C@@H]1C(=O)N2C(C(=O)O)=C(CSc3nnnn3C)CS[C@H]12)c1csc(N)n1)C(=O)O [Example 19]"
  parameter: "MIC"
  observedValue: 0.025
- compound: "C=C(O/N=C(\\C(=O)N[C@@H]1C(=O)N2C(C(=O)O)=C(COC(C)=O)CS[C@H]12)c1csc(N)n1)C(=O)O [Example 17]"
  parameter: "MIC"
  observedValue: 0.025
- compound: "C=C(O/N=C(\\C(=O)N[C@@H]1C(=O)N2C(C(=O)[O-])=C(C[n+]3cccc(NC=O)c3)CS[C@H]12)c1csc(N)n1)C(=O)O [Example 10]"
  parameter: "MIC"
  observedValue: 0.0125
- compound: "C=C(O/N=C(\\C(=O)N[C@@H]1C(=O)N2C(C(=O)O)=C(CSc3nc(-c4ccc(OC(C)=O)c(OC(C)=O)c4)c(CC(=O)O)s3)CS[C@H]12)c1csc(N)n1)C(=O)O [Example 16]"
  parameter: "MIC"
  observedValue: 0.05
- compound: "C=C(O/N=C(\\C(=O)N[C@@H]1C(=O)N2C(C(=O)O)=C(CSc3nnc(-c4ccc(O)c(O)c4)s3)CS[C@H]12)c1csc(N)n1)C(=O)O [Example 13]"
  parameter: "MIC"
  observedValue: 0.1
- compound: "C=C(O/N=C(\\C(=O)N[C@@H]1C(=O)N2C(C(=O)[O-])=C(C[n+]3ccc(C(=O)O)cc3)CS[C@H]12)c1csc(N)n1)C(=O)O [Example 5]"
  parameter: "MIC"
  observedValue: 0.025
- compound: "C=C(O/N=C(\\C(=O)N[C@@H]1C(=O)N2C(C(=O)[O-])=C(C[n+]3ccc(C(N)=O)cc3)CS[C@H]12)c1csc(N)n1)C(=O)O [Example 6]"
  parameter: "MIC"
  observedValue: 0.025

Would you kindly look at the next entry?
(Q) Determine from records and report MIC for C=C(O/N=C(\C(=O)N[C@@H]1C(=O)N2C(C(=O)O)=C(CSc3nnnn3CC(=O)O)CS[C@H]12)c1csc(N)n1)C(=O)O [Example 20]
(A) 0.05
